PROCEDURE DETAILS: Standard solubility studies
Assay type: physicochemical
MEASUREMENT SETUP: organic solvent or mixture; in alcohol
PROPERTY MEASURED: solubility

Exercise: Which solubility reading was recorded for the compound CC1OC2CC(O[C@H]3CC[C@H](O)[C@H](C)O3)C1(O)c1c(O)c3c(c(O)c12)C(=O)C1=C(C3=O)[C@H](C)O[C@H]2CC(=O)O[C@@H]12 (stereo partly shown) [Granaticin B, granaticin B] ?
Solution: > 188 mg/mL

---

Measured pIC50, listed per entry.
Test system: HELA N10
PROCEDURE DETAILS: Cytotoxicity assay (Alamar blue)
Type: cell-based
MEASUREMENT SETUP: human cervical adenocarcinoma (positive for human papillomavirus infection)
Give only the number. pIC50 is defined as minus log10 of concentration in molar units.

COMPOUND	VALUE
CC1OC2CC(O)C1(O)c1c(O)c3c(c(O)c12)C(=O)C1=C(C3=O)[C@H](C)O[C@H]2CC(=O)O[C@@H]12 (some centres unmarked) [Granaticin A, granaticin A]	5.90

Exercise: Which pIC50 reading was recorded for the compound CC1OC2CC(O[C@H]3CC[C@H](O)[C@H](C)O3)C1(O)c1c(O)c3c(c(O)c12)C(=O)C1=C(C3=O)[C@H](C)O[C@H]2CC(=O)O[C@@H]12 (some centres unmarked) [Granaticin B, granaticin B] ?
Solution: 6.01
